# procedure.text: NCI Yeast Anticancer Drug Screen. Data for the bub3 strain (AID 167)
# condition.info: S. cerevisiae bub3 mutant strain, at 5.0 µM (retest, dose inferred, filed as 0.5), hits give high values
The panel holds about 79,000 compounds, 15% with a hit somewhere; the sample as a whole holds those more often.
property.measured: growth inhibition (%)
Numbers only, in %.

1. Clc1cc2n[nH]nc2c(Cl)c1Cl    -13
2. NCc1cccc(O)c1O    20
3. CC(=O)OCC1OC(c2cccc3c2c2ccccc2n3S(=O)(=O)c2ccccc2)C(O)C1O (stereo unspecified)    0
4. C/C=C(\CCC1NCCc2c1[nH]c1ccccc21)[Si](C)(C)C (stereo unspecified)    11
5. O=S1CCS(=O)C1c1ccccc1 (stereo unspecified)    -14

Return reported growth inhibition; argument: CN(C)C(=S)/N=c1\ss/c(=N\S(=O)(=O)c2ccccc2)n1-c1ccccc1
-52
